Source listed as patent US20100267561A1.

The entries below come with measured Plant response rating, Wheat, Spring values attached.
System: spring wheat (Triticum aestivum)
test_summary: Test C pre-/postemergence plant response
Format: in vivo
recorded_conditions: Preemergence, 62 g ai/ha; scale 0 to 100, 0 no effect, 100 complete control

mol | Plant response rating, Wheat, Spring
C#CCOC(=O)Oc1cnn(C)c(=O)c1-n1nc(-c2ccc(Cl)cc2)cc1C | 90
Cc1cc(-c2ccc(Cl)cc2)nn1-c1c(OC(=O)c2ccccc2)cnn(C)c1=O | 75
Cc1cc(-c2ccc(Cl)cc2)nn1-c1c(OS(=O)(=O)c2ccccc2[N+](=O)[O-])cnn(C)c1=O | 75
Cn1ncc(O)c(-c2nn(-c3ccc(Cl)cc3)cc2Cl)c1=O | 50
CCc1cc(-c2ccc(C(F)(F)F)cc2)nn1-c1c(O)cnn(C)c1=O | 100
Cc1cc(-c2ccc(Cl)cc2)nn1-c1c(OC(=O)C(C)C)cnn(C)c1=O | 90
Cc1cc(-c2ccc(Cl)cc2)nn1-c1c(OC(=O)OCC(C)C)cnn(C)c1=O | 90

----------
Test system: blackgrass (Alopecurus myosuroides)
test_summary: Test B pre-/postemergence plant response
Type: in vivo
recorded_conditions: Postemergence, 31 g ai/ha; scale 0 to 100, 0 no effect, 100 complete control
assay_endpoint: Plant response rating, Blackgrass

mol | assayed_target | assay_endpoint | numeric_value
CCc1cc(-c2ccc(C(F)(F)F)cc2)nn1-c1c(OS(C)(=O)=O)cnn(C)c1=O | blackgrass (Alopecurus myosuroides) | Plant response rating, Blackgrass | 90
CCc1cc(-c2ccc(Cl)cc2)nn1-c1c(OS(C)(=O)=O)cnn(C)c1=O | blackgrass (Alopecurus myosuroides) | Plant response rating, Blackgrass | 95
Cc1cc(-c2ccc(Cl)cc2)nn1-c1c(OC(=O)C(C)C)cnn(C)c1=O | blackgrass (Alopecurus myosuroides) | Plant response rating, Blackgrass | 75
COC(=O)Oc1cnn(C)c(=O)c1-n1nc(-c2ccc(Cl)cc2)cc1C | blackgrass (Alopecurus myosuroides) | Plant response rating, Blackgrass | 80
CCc1cc(-c2ccc(F)cc2)nn1-c1c(O)cnn(C)c1=O | blackgrass (Alopecurus myosuroides) | Plant response rating, Blackgrass | 75

----------
The entries below come with measured Plant response rating, Oat, Wild values attached.
Test system: wild oat (Avena fatua)
test_summary: Test C pre-/postemergence plant response
Assay type: in vivo
recorded_conditions: Preemergence, 31 g ai/ha; scale 0 to 100 (0 no effect, 100 complete control)
assay_endpoint: Plant response rating, Oat, Wild

mol | assayed_target | assay_endpoint | numeric_value
CCc1cc(-c2ccc(F)cc2)nn1-c1c(O)cnn(C)c1=O | wild oat (Avena fatua) | Plant response rating, Oat, Wild | 40
Cc1cc(-c2ccc(Cl)cc2)nn1-c1c(OC(=O)OCC(C)C)cnn(C)c1=O | wild oat (Avena fatua) | Plant response rating, Oat, Wild | 60
CCc1cc(-c2ccc(C(F)(F)F)cc2)nn1-c1c(OS(C)(=O)=O)cnn(C)c1=O | wild oat (Avena fatua) | Plant response rating, Oat, Wild | 80
CCc1cc(-c2ccc(Cl)cc2)nn1-c1c(OC(=O)OC(C)C)cnn(C)c1=O | wild oat (Avena fatua) | Plant response rating, Oat, Wild | 95
COC(=O)Oc1cnn(C)c(=O)c1-n1nc(-c2ccc(Cl)cc2)cc1C | wild oat (Avena fatua) | Plant response rating, Oat, Wild | 60

----------
Tested on: corn (Zea mays)
test_summary: Test B pre-/postemergence plant response
Format: in vivo
recorded_conditions: Preemergence; 8 g ai/ha; scale 0 to 100
Description: […] Plant species in the flooded paddy test consisted of rice (Oryza sativa), umbrella sedge (Cyperus difformis), ducksalad (Heteranthera limosa) and barnyardgrass (Echinochloa crus-galli) grown to the 2-leaf stage for testing. […] Treated plants and controls were maintained in a greenhouse for 13 to 15 days, after which time all species were compared to controls and visually evaluated. […]
Param threshold (60) applies to Corn plant response rating; output T when value >= threshold, F when value < threshold.

mol | assayed_target | category
CCc1cc(-c2ccc(Cl)cc2)nn1-c1c(OC(=O)C(C)(C)C)cnn(C)c1=O | corn (Zea mays) | F
C#CCOC(=O)Oc1cnn(C)c(=O)c1-n1nc(-c2ccc(Cl)cc2)cc1C | corn (Zea mays) | F
CCc1cc(-c2ccc(Cl)cc2)nn1-c1c(OS(C)(=O)=O)cnn(C)c1=O | corn (Zea mays) | T
CCc1cc(-c2ccc(Br)cc2)nn1-c1c(O)cnn(C)c1=O | corn (Zea mays) | T
CCc1c(C)c(-c2ccc(Cl)cc2)nn1-c1c(O)cnn(C)c1=O | corn (Zea mays) | F
Cc1cc(-c2ccc(Cl)cc2)nn1-c1c(OC(=O)OCC(C)C)cnn(C)c1=O | corn (Zea mays) | F
Cc1cc(-c2ccc(Cl)cc2)nn1-c1c(OC(=O)C(C)C)cnn(C)c1=O | corn (Zea mays) | F

----------
Tested on: rice (Oryza sativa)
test_summary: Test B flooded paddy test plant response
Assay type: in vivo
recorded_conditions: Flood (flooded paddy test), 250 g ai/ha; scale 0 to 100, 0 no effect, 100 complete control

mol | assayed_target | Plant response rating, Rice
COCc1cc(-c2ccc(Br)cc2)nn1-c1c(O)cnn(C)c1=O | rice (Oryza sativa) | 0
CCc1cc(-c2ccc(Br)cc2)nn1-c1c(O)cnn(C)c1=O | rice (Oryza sativa) | 60
Cc1cc(-c2ccc(Cl)cc2)nn1-c1c(OC(=O)OCC(C)C)cnn(C)c1=O | rice (Oryza sativa) | 15
CCc1cc(-c2ccc(Cl)c(Cl)c2)nn1-c1c(O)cnn(C)c1=O | rice (Oryza sativa) | 0
Cc1cc(-c2ccc(Cl)cc2)nn1-c1c(OC(=O)c2ccccc2)cnn(C)c1=O | rice (Oryza sativa) | 0
Cc1cn(-c2ccc(Cl)cn2)nc1-c1c(O)cnn(C)c1=O | rice (Oryza sativa) | 0
Cc1cc(-c2ccc(Cl)cc2)nn1-c1c(OS(C)(=O)=O)cnn(C)c1=O | rice (Oryza sativa) | 0
C#CCOC(=O)Oc1cnn(C)c(=O)c1-n1nc(-c2ccc(Cl)cc2)cc1C | rice (Oryza sativa) | 60
Cc1nn(-c2ccc(Cl)cc2)cc1-c1c(O)cnn(C)c1=O | rice (Oryza sativa) | 0
CCc1cc(-c2ccc(F)cc2)nn1-c1c(O)cnn(C)c1=O | rice (Oryza sativa) | 0
CCc1cc(-c2ccc(C(F)(F)F)cc2)nn1-c1c(O)cnn(CC)c1=O | rice (Oryza sativa) | 15

----------
The entries below come with measured Plant response rating, Foxtail, Giant values attached.
Test system: giant foxtail (Setaria faberi)
test_summary: Test A pre-/postemergence plant response
Format: in vivo
recorded_conditions: Postemergence, 125 g ai/ha; 0 to 100 scale, 0 no effect, 100 complete control

mol | Plant response rating, Foxtail, Giant
Cc1cc(-c2ccc(Br)cc2)nn1-c1c(O)cnn(C)c1=O | 100
CCc1cc(-c2ccc(F)cc2)nn1-c1c(O)cnn(C)c1=O | 100
Cn1ncc(O)c(-c2nn(-c3ccc(C(F)(F)F)cn3)cc2Br)c1=O | 90
Cc1nc(-c2ccc(C(F)(F)F)cc2)sc1-c1c(O)cnn(C)c1=O | 0
Cc1cn(-c2ccc(Cl)cn2)nc1-c1c(O)cnn(C)c1=O | 10
CCc1cc(-c2ccc(Cl)c(Cl)c2)nn1-c1c(O)cnn(C)c1=O | 90
Cc1cc(-c2ccc(OC(F)(F)F)cc2)nn1-c1c(OC(=O)OC(C)C)cnn(C)c1=O | 70
Cn1ncc(O)c(-c2nn(-c3ccc(Cl)cc3)cc2Cl)c1=O | 90
Cc1nn(-c2ccc(Cl)cc2)cc1-c1c(O)cnn(C)c1=O | 0

----------
System: surinam grass (Brachiaria decumbens)
test_summary: Test B pre-/postemergence plant response
Format: in vivo
recorded_conditions: Preemergence, 31 g ai/ha; scale 0 to 100 (0 no effect, 100 complete control)
assay_endpoint: Plant response rating, Surinam Grass

molecule | assay_endpoint | numeric_value
CCc1cc(-c2ccc(Cl)cc2)nn1-c1c(OC(=O)OC(C)C)cnn(C)c1=O [Compound 41] | Plant response rating, Surinam Grass | 55
Cc1cc(-c2ccc(Cl)cc2)nn1-c1c(OC(=O)OCC(C)C)cnn(C)c1=O [Compound 57] | Plant response rating, Surinam Grass | 100
Cc1nn(C)c(=O)c(-n2nc(-c3ccc(Br)cc3)cc2C)c1O [Compound 81] | Plant response rating, Surinam Grass | 100
Cc1cc(-c2ccc(Cl)cc2)nn1-c1c(OC(=S)N(C)C)cnn(C)c1=O [Compound 69] | Plant response rating, Surinam Grass | 15

----------
Test system: soybean (Glycine max)
test_summary: Test B pre-/postemergence plant response
Assay type: in vivo
recorded_conditions: Preemergence; 16 g ai/ha; scale 0 to 100
The entries below come with measured Soybean plant response rating values attached.

molecule | assayed_target | Soybean plant response rating
CCc1cc(-c2ccc(Br)cc2)nn1-c1c(O)cnn(C)c1=O [Compound 61] | soybean (Glycine max) | 0
Cc1cc(-c2ccc(Br)cc2)nn1-c1c(OC(=O)C2CC2)cnn(C(=O)C2CC2)c1=O [Compound 80] | soybean (Glycine max) | 0
Cc1cc(-c2ccc(Br)cc2)nn1-c1c(O)cn[nH]c1=O [Compound 78] | soybean (Glycine max) | 0
C#CCOC(=O)Oc1cnn(C)c(=O)c1-n1nc(-c2ccc(Cl)cc2)cc1C [Compound 58] | soybean (Glycine max) | 0
